Entry source: ChEMBL document CHEMBL3286116

# System: Cryptococcus neoformans
# experimental_details: Antifungal activity against Cryptococcus neoformans PMC 2136 after 72 hrs by CLSI broth microdilution method
# Format: functional
# reported_conditions: PMC 2136, 72 h
Provide the reported MIC50 of each item.
Numbers only, in µg/mL.

// below: answered compounds
CCS(=O)(=O)N1CCN(c2ccc(NC(=O)OC(Cn3ccnc3)c3ccc(F)cc3)cc2)CC1 (centres undefined)    16
O=C(OC(Cn1ccnc1)c1ccc(Cl)cc1)N1CCN(c2ccc([N+](=O)[O-])cc2)CC1 (centres undefined)    8
O=C(Nc1ccc(N2CCN(c3ccc(Cl)cc3)CC2)cc1)O[C@H](Cn1ccnc1)c1ccc(F)cc1    2
O=C(OC(Cn1ccnc1)c1ccc(F)cc1)N1CCN(C(=O)c2ccco2)CC1 (centres undefined)    64
O=C(OC(Cn1ccnc1)c1ccc(F)cc1)N1CCN(c2ccc(Cl)cc2)CC1 (centres undefined)    4
O=C(Nc1ccc(N2CCN(c3ccc(Cl)cc3)CC2)cc1)OC(Cn1ccnc1)c1ccc(F)cc1 (centres undefined)    0.125
O=C(OC(Cn1ccnc1)c1ccc(Cl)cc1)N1CCN(c2ccc(Cl)cc2)CC1 (centres undefined)    4
O=C(OC(Cn1ccnc1)c1ccc(Cl)cc1)N1CCN(C(=O)c2ccco2)CC1 (centres undefined)    128

Okay, next one:
-- ask Dear colleague, please send me the reported MIC50 for O=C(O[C@@H](Cn1ccnc1)c1ccc(Cl)cc1)N1CCN(c2ccc(Cl)cc2)CC1 when you can.
-- reply 2
